meta.source: paper PMC9386018

- Protocol: Bioavailability studies: recovery in feces and urine
- Assay type: in vivo, mouse
- Run Parameters: female, CD-1, mouse, feces, oral, 400 mg/kg, from Feces; Dose 400 mg/kg; individual replicates; read-out: LP-182 Bioavailability (%)
Readout Name: Fa (%)
// return numeric value only (unit: %, not printed)

Could you share which Fa value was measured for `O=C(NOCCOCCOCCOCCC(=O)N1CCN(c2cnc3ccc(-c4cnc(Cl)c(NS(=O)(=O)c5ccc(F)cc5)c4)cc3n2)CC1)c1ccc(F)c(F)c1Nc1ccc(I)cc1F` ?
87

----------
- Protocol: Pharmacokinetic analysis of plasma after intravenous and oral dosing
- Run Parameters: female, CD-1, mouse, plasma, po, 400 mg/kg
Readout Name: half-life (h)
// return numeric value only (unit: h, not printed)

Could you share which half-life value was measured for O=C(NOCCOCCOCCOCCC(=O)N1CCN(c2cnc3ccc(-c4cnc(Cl)c(NS(=O)(=O)c5ccc(F)cc5)c4)cc3n2)CC1)c1ccc(F)c(F)c1Nc1ccc(I)cc1F [LP-182] ?
12.7

----------
- Protocol: Pharmacokinetic analysis of plasma after intravenous and oral dosing
- Run Parameters: female, CD-1, mouse, plasma, iv, 15 mg kg^−1, Concentration (ng/mL), mice, single i.v. LP-182 15 mg kg^−1, 1 h; analyte = label; individual animals
Readout Name: concentration at 1 h
Your answer should be a number followed by the unit of measure.

Could you share which concentration at 1 h value was measured for O=S(=O)(Nc1cc(-c2ccc3ncc(N4CCNCC4)nc3c2)cnc1Cl)c1ccc(F)cc1 [LP-527] ?
6.53 ng/mL

Could you share which concentration at 1 h value was measured for O=C(NOCCO)c1ccc(F)c(F)c1Nc1ccc(I)cc1F [PD0316684, reference compound] ?
95.3 ng/mL

Could you share which concentration at 1 h value was measured for O=C(NOCCOCCOCCOCCC(=O)N1CCN(c2cnc3ccc(-c4cnc(Cl)c(NS(=O)(=O)c5ccc(F)cc5)c4)cc3n2)CC1)c1ccc(F)c(F)c1Nc1ccc(I)cc1F [LP-182] ?
524 ng/mL

----------
Would you kindly list concentration at 7 h for each of these compounds?
- Protocol: Pharmacokinetic analysis of plasma after intravenous and oral dosing
- Run Parameters: female, CD-1, mouse, plasma, iv, 15 mg kg^−1, Concentration (ng/mL), mice, single i.v. LP-182 15 mg kg^−1, 7 h; analyte = label; individual animals
Your answer should be a number followed by the unit of measure.

Could you share which concentration at 7 h value was measured for `O=C(NOCCOCCOCCOCCC(=O)N1CCN(c2cnc3ccc(-c4cnc(Cl)c(NS(=O)(=O)c5ccc(F)cc5)c4)cc3n2)CC1)c1ccc(F)c(F)c1Nc1ccc(I)cc1F` ?
29.2 ng/mL

Could you share which concentration at 7 h value was measured for O=C(NOCCO)c1ccc(F)c(F)c1Nc1ccc(I)cc1F [PD0316684, reference compound] ?
5.74 ng/mL

----------
- Protocol: Pharmacokinetic analysis of plasma after intravenous and oral dosing
- Run Parameters: female, CD-1, mouse, plasma, po, 200 mg kg^−1, Concentration, Figure 6d; Time 0.5 h; individual replicates
Readout Name: concentration at 0.5 h (ng/mL)
// return numeric value only (unit: ng/mL, not printed)

Could you share which concentration at 0.5 h value was measured for O=C(NOCCO)c1ccc(F)c(F)c1Nc1ccc(I)cc1F [PD0316684, reference compound] ?
254
